Quick reference for IC50 among some molecules
- assay_target: human recombinant BACE1 (Homo sapiens (Human), UniProt P56817)
- Sequence (P56817 46-501): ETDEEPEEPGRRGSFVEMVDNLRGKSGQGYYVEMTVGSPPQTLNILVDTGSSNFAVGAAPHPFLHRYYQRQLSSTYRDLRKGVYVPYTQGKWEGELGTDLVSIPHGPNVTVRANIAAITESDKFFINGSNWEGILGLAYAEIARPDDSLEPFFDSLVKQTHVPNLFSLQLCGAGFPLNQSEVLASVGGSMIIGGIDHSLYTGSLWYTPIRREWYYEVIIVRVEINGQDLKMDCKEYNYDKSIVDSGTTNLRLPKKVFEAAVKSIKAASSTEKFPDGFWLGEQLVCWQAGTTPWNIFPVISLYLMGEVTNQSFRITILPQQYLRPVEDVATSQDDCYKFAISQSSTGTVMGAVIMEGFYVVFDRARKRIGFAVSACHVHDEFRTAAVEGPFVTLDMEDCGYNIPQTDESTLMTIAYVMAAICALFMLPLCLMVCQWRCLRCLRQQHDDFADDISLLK
- test_protocol: In vitro enzymatic BACE1 FRET assay
- Format: biochemical
- condition_info: read-out: IC50 IP (μM) BACE1 enzyme
measurement_name: IC50 (µM)

| smiles_text | measurement_name | assay_result |
| --- | --- | --- |
| CN(C)C(=O)[C@]12C[C@H]1[C@@](C)(c1cc(Nc3ncnc4cc(OCc5ncco5)cnc34)cc(F)c1F)N=C(N)S2 | IC50 | 0.000863 |
| Cc1cc(OCc2ncco2)cnc1C(=O)Nc1cc(F)c(F)c([C@@]2(C)N=C(N)S[C@@]3(C(F)F)C[C@@H]23)c1 | IC50 | 0.00246 |
| C#CCOc1cnc2c(Nc3cc(F)c(F)c([C@@]4(C)N=C(N)S[C@@]5(COC)C[C@H]54)c3)nccc2n1 | IC50 | 0.00114 |
